target: NRAS Q61R (Homo sapiens (Human), UniProt P01111+P62937, Q61R); test: Ras-Raf (BRAF RBD) disruption / FRET / MOA assay, NRAS Q61R; assay type: biochemical; details: NRAS Q61R; Ras-Raf disruption/FRET/MOA assay; read-out: IC50* NRAS Q61R FRET data
Sequence (P01111 whole entry Q61R): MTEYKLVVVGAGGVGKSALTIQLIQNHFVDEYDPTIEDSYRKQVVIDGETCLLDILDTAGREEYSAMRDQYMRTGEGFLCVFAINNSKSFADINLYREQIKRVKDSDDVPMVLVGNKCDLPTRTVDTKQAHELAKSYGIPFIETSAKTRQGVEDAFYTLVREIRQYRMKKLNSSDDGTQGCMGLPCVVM
Sequence (P62937 whole entry): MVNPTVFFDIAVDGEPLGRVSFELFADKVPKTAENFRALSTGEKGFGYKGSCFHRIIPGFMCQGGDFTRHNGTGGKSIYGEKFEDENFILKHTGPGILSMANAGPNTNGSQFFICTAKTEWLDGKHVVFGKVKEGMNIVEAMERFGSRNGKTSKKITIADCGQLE
For each entry below, report its IC50 value.

Given the entry CO[C@@H](C)c1ncccc1-c1c2c3cc(ccc3n1CC(F)(F)F)-c1csc(n1)C[C@H](NC(=O)[C@H](C(C)C)N(C)C(=O)N1C[C@@H]3OCCN(C(=O)/C=C/CF)[C@@H]3C1)C(=O)N1CCC[C@H](N1)C(=O)OCC(C)(C)C2 (atropisomer, axis not shown) , report its measured IC50. 100 to 1000 nM

Record: C=CC(=O)N(C)[C@@H]1CCCN(C(=O)N(C)[C@H](C(=O)N[C@H]2Cc3nc(cs3)-c3ccc4c(c3)c(c(-c3cccnc3[C@H](C)OC)n4CC)CC(C)(C)COC(=O)[C@@H]3CCCN(N3)C2=O)C(C)C)C1 (atropisomer, axis not shown) 10 to 100 nM

Record: CCn1c(-c2cccnc2[C@H](C)OC)c2c3cc(ccc31)-c1csc(n1)C[C@H](NC(=O)[C@H](C(C)C)N(C)C(=O)N1C[C@@H]3CN(C(=O)C#CC(C)(C)N(C)C)CC[C@@H]31)C(=O)N1CCC[C@H](N1)C(=O)OCC(C)(C)C2 (atropisomer, axis not shown) 100 to 1000 nM

Record: CO[C@@H](C)c1ncccc1-c1c2c3cc(ccc3n1CC(F)(F)F)-c1cc(F)cc(c1)C[C@H](NC(=O)[C@@H](COC1CN(C(=O)C#CC(C)(C)N(C)C)C1)C(C)C)C(=O)N1CCC[C@H](N1)C(=O)OCC(C)(C)C2 (atropisomer, axis not shown) > 10000 nM

Record: C=CC(=O)N(C)CCN1CCN(C(=O)N(C)[C@H](C(=O)N[C@H]2Cc3cccc(c3)-c3ccc4c(c3)c(c(-c3cccnc3[C@H](C)OC)n4CC)CC(C)(C)COC(=O)[C@@H]3CCCN(N3)C2=O)C(C)C)CC1 (atropisomer, axis not shown) 100 to 1000 nM

Record: C=CC(=O)N1CC[C@H](C(=O)N(C)[C@H](C(=O)NC2C[C@@H]3CN(CCO3)c3ccc4c(c3)c(c(-c3cccnc3[C@H](C)OC)n4CC)CC(C)(C)COC(=O)[C@@H]3CC(Br)CN(N3)C2=O)C(C)C)C1 (stereo partly shown) > 10000 nM

Record: C=CC(=O)N1CC[C@H](C(=O)N(C)[C@H](C(=O)N[C@H]2Cc3nc(cs3)-c3ccc4c(c3)c(c(-c3cc5c(nc3[C@H](C)OC)CCN(C)C5)n4CC)CC(C)(C)COC(=O)[C@@H]3CCCN(N3)C2=O)C(C)C)C1 (atropisomer, axis not shown) 1000 to 10000 nM

====

For each entry below, report its IC50 value.
target: KRAS G12D (Homo sapiens (Human), UniProt P01116+P62937, G12D); assay: Ras-Raf (BRAF RBD) disruption / FRET / MOA assay, KRAS G12D; format: biochemical; details: Ras-Raf disruption/FRET/MOA assay; class symbols; read-out: KRAS G12D FRET data IC50
Sequence (P01116-2 other isoform, or with tags, fused parts or gaps G12D): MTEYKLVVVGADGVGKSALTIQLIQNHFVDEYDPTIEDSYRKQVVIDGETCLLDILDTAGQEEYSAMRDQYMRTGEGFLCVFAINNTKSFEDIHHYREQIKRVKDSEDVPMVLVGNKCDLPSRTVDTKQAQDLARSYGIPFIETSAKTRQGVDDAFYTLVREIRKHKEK
Sequence (P62937 whole entry): as the sequence (P62937 whole entry) above

Given the entry C=CC(=O)Nc1ccc(C(=O)N(C)[C@H](C(=O)N[C@H]2Cc3cc(O)cc(c3)-c3ccc4c(c3)c(c(-c3cccnc3[C@H](C)OC)n4CC)CC(C)(C)COC(=O)[C@@H]3CCCN(N3)C2=O)C(C)C)nc1 (atropisomer, axis not shown) , report its measured IC50. 1 to 10 µM

Record: CCn1c(-c2cccnc2[C@H](C)OC)c2c3cc(ccc31)-c1cccc(c1)C[C@H](NC(=O)[C@@H](COC1CN(C(=O)C#C[C@@H]3OCCCN3C)C1)C(C)C)C(=O)N1CCC[C@H](N1)C(=O)OCC(C)(C)C2 (atropisomer, axis not shown) > 10 µM

Record: "CCn1c(-c2ccccc2CN(C)C)c2c3cc(ccc31)-c1cc(O)cc(c1)C[C@H](NC(=O)[C@@H](C(C)C)N(C)C(=O)c1ncc(NC(=O)/C=C/CN(C)C)n1C)C(=O)N1CCC[C@H](N1)C(=O)OCC(C)(C)C2" > 10 µM

Record: CC#CC(=O)N1CC[C@H](C(=O)N(C)[C@H](C(=O)N[C@H]2Cc3nc(cs3)-c3ccc4c(c3)c(c(-c3cccnc3[C@H](C)OC)n4CC)CC(C)(C)COC(=O)[C@@H]3CCCN(N3)C2=O)C2CCCC2)C1 (atropisomer, axis not shown) > 10 µM

Record: C=CC(=O)N1CC[C@H](C(=O)N(C)[C@H](C(=O)NC2C[C@H]3CN(CCCO3)c3ccc4c(c3)c(c(-c3cccnc3[C@H](C)OC)n4CC)CC(C)(C)COC(=O)[C@@H]3CCCN(N3)C2=O)C(C)C)C1 (some centres unmarked) [Example A429] > 10 µM

Record: CCn1c(-c2cccnc2[C@H](C)OC)c2c3cc(ccc31)N1CCO[C@@H](C[C@H](NC(=O)[C@H](C(C)C)N(C)C(=O)C3(F)CCN(C(=O)C#CC(C)(C)N(C)C)CC3)C(=O)N3CCC[C@H](N3)C(=O)OCC(C)(C)C2)C1 (atropisomer, axis not shown) 1 to 10 µM

Record: "CCn1c(-c2cccnc2COC)c2c3cc(ccc31)-c1cc(O)cc(c1)C[C@H](NC(=O)[C@H](C(C)C)N(C)C(=O)[C@H]1CCN(C(=O)C#CCN3CCOCC3)C1)C(=O)N1CCC[C@H](N1)C(=O)OCC(C)(C)C2" > 10 µM

Record: CCn1c(-c2cccnc2[C@H](C)OC)c2c3cc(ccc31)-c1cccc(c1)C[C@H](NC(=O)[C@@H](COC1CN(C(=O)C#CC(C)(C)N3CCC3)C1)C(C)C)C(=O)N1CCC[C@H](N1)C(=O)OCC(C)(C)C2 (atropisomer, axis not shown) > 10 µM

====

target: KRAS G12D (Homo sapiens (Human), UniProt P01116+P62937, G12D); assay: Ras-Raf (BRAF RBD) disruption / FRET / MOA assay, KRAS G12D; assay type: biochemical; conditions: Ras-Raf disruption/FRET/MOA assay; class symbols; read-out: KRAS G12D FRET data IC50
For each entry below, report its IC50 value.

Given the entry C=CC(=O)N1CC[C@H](C(=O)N(C)[C@H](C(=O)N[C@H]2Cc3cccc(c3)-c3ccc4c(c3)c(c(-c3cc(C5CCN(C)CC5)cnc3[C@H](C)OC)n4CC)CC(C)(C)COC(=O)[C@@H]3CCCN(N3)C2=O)C(C)C)C1 (atropisomer, axis not shown) [Example A516] , report its measured IC50. > 10 µM

Record: C=CC(=O)N1CCC(F)(C(=O)N(C)[C@H](C(=O)N[C@H]2Cc3cccc(c3)-c3ccc4c(c3)c(c(-c3cccnc3[C@H](C)OC)n4CC)CC(C)(C)COC(=O)[C@@H]3CCCN(N3)C2=O)C(C)C)CC1 (atropisomer, axis not shown) [Example A518] 1 to 10 µM

Record: CCn1c(-c2cccnc2[C@H](C)OC)c2c3cc(ccc31)-c1cccc(c1)C[C@H](NC(=O)[C@H](C(C)C)N1CC[C@]3(CCN(C(=O)C#C[C@@]4(N(C)C)CCOC4)C3)C1=O)C(=O)N1CCC[C@H](N1)C(=O)OCC(C)(C)C2 (atropisomer, axis not shown) 1 to 10 µM

Record: C=CC(=O)N1CC[C@H](C(=O)N(C2CC2)[C@H](C(=O)N[C@H]2Cc3cccc(c3)-c3ccc4c(c3)c(c(-c3cccnc3[C@H](C)OC)n4CC)CC(C)(C)COC(=O)[C@@H]3CCCN(N3)C2=O)C(C)C)C1 (atropisomer, axis not shown) > 10 µM

====

For each entry below, report its pIC50 value.
target: KRAS G12V (Homo sapiens (Human), UniProt P01116+P62937, G12V); assay: Ras-Raf (BRAF RBD) disruption / FRET / MOA assay, KRAS G12V; type: biochemical; conditions: read-out: IC50* KRAS G12V FRET data
Sequence (P01116-2 other isoform, or with tags, fused parts or gaps G12V): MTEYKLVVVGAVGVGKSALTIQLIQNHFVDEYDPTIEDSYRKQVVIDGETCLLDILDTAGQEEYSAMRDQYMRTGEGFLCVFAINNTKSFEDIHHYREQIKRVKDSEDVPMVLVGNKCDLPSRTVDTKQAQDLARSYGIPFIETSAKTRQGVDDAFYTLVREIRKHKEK
Sequence (P62937 whole entry): as the sequence (P62937 whole entry) above
pIC50: −log10 of the molar value.

Given the entry C=CC(=O)N1CC[C@H](C(=O)N(C)[C@H](C(=O)N[C@H]2CC3=NN=C(O3)c3ccc4c(c3)c(c(-c3cccnc3[C@H](C)OC)n4CC)CC(C)(C)COC(=O)[C@@H]3CCCN(N3)C2=O)C(C)C)C1 (atropisomer, axis not shown) [Example A447] , report its measured pIC50. 5.00 to 6.00

Record: CCn1c(-c2cccnc2[C@H](C)OC)c2c3cc(ccc31)-c1csc(n1)C[C@H](NC(=O)[C@@H](F)COC1CN(C(=O)C#CC(C)(C)N(C)C)C1)C(=O)N1CCC[C@H](N1)C(=O)OCC(C)(C)C2 (atropisomer, axis not shown) [Example A626] 5.00 to 6.00
